Biological target: F508delCFTR (Homo sapiens, UniProt P13569, DEL508-508)
Construct: expressed in transfected cells; host or cells: CFBE41o- human lung-derived epithelial cells (CFBE4lo-F508delCFTR-HRP), doxycycline-inducible
Sequence (P13569 with tags, fused parts or gaps DEL508-508): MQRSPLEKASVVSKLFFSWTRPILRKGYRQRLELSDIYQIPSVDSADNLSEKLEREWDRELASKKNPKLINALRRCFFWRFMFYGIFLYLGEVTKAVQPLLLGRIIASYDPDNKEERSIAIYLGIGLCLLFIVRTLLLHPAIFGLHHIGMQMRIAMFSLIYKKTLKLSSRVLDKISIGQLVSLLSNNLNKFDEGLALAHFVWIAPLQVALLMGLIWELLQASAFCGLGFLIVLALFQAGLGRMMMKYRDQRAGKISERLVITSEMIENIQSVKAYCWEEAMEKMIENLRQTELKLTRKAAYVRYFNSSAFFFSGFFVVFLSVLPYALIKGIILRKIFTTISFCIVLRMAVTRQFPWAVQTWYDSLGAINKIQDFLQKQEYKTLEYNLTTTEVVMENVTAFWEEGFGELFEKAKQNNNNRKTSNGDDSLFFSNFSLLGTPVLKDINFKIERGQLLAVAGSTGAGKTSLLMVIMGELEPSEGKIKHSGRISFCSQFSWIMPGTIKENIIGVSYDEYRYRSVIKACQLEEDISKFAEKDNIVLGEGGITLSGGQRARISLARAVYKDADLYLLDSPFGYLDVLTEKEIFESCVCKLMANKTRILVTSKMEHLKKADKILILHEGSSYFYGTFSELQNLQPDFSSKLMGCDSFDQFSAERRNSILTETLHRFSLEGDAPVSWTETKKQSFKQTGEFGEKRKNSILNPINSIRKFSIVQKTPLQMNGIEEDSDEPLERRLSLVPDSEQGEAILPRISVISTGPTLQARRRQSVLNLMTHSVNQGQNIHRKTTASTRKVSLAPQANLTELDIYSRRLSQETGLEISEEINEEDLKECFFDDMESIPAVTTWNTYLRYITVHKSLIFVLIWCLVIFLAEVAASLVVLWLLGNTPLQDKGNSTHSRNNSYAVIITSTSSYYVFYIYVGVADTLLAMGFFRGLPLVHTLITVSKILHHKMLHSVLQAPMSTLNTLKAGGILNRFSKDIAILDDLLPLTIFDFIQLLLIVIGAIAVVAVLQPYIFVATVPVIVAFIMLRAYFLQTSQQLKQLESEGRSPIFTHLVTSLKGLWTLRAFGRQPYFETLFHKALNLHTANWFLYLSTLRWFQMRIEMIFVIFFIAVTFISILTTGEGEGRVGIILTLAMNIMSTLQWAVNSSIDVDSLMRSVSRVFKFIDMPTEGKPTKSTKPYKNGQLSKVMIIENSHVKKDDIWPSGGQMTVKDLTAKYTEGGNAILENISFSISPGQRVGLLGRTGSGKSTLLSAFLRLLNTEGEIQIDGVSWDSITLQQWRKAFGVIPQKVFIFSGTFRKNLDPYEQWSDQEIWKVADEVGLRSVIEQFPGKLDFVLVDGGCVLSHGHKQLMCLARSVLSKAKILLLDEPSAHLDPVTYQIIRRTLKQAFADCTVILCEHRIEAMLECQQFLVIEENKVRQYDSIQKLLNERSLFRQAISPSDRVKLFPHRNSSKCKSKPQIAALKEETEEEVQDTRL
Experiment: Cell Surface Expression-Horse Radish Peroxidase (CSE-HRP) Assay;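 as to Maximum % activity (with co-corrector): co-corrector and positive control are both the same reference corrector at 2 µM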
Type: cell-based
Settings: with co-corrector (2 μM of 3-[(2R,4R)-4-({[1-(2,2-difluoro-1,3-benzodioxol-5-yl)cyclopropyl]carbonyl}amino)-7-methoxy-3,4-dihydro-2H-chromen-2-yl]benzoic acid); maximum at any tested concentration, normalized to on-plate positive control
Recorded Endpoint: Maximum % activity (with co-corrector)

Some compounds with known Maximum % activity (with co-corrector) results, for comparison:
# Compound, Assay Value
records = [
    ("COc1cc(-c2ccccc2)ccc1CN[C@@H]1[C@@H](C(C)(C)C)[C@H](C(=O)O)N(C(=O)OC(C)C)[C@@H]1c1ccccc1 (racemic)", "+ (<150)"),
    ("COc1cccc([C@@H]2[C@H](Nc3cc(C(F)(F)F)cc(C)n3)[C@@H](C(C)(C)C)[C@H](C(=O)O)N2C(=O)C2CCCCO2)n1 (mixture of isomers)", "+ (<150)"),
    ("COc1ccc(CN[C@@H]2[C@@H](C(C)(C)C)[C@H](C(=O)O)N(C(=O)C3CCCCC3)[C@@H]2c2ccccc2)cn1 (racemic)", "++ (≥150 and <350)"),
    ("CC(C)(C)[C@@H]1[C@@H](NCc2cccc(Cl)c2O)[C@@H](c2ccccc2)N(C(=O)C2CCCCC2)[C@H]1C(=O)O (racemic)", "++ (≥150 and <350)"),
    ("COC1(CN[C@H]2[C@H](C(C)(C)C)[C@@H](C(=O)O)N(C(=O)C3CCCCC3)[C@H]2c2ccccc2)CCCCC1", "+++ (≥350)"),
]

Req: Tell me the measured Maximum % activity (with co-corrector) of COc1ccccc1[C@@H]1[C@H](NCc2cccc3c2OC(F)(F)O3)[C@@H](C(C)(C)C)[C@H](C(=O)O)N1C(=O)C1CCCCC1 (racemic) , please.
Resp: ++ (≥150 and <350)

Req: Maximum % activity (with co-corrector) for COc1ccc(C2CC2)cc1CN[C@H]1[C@H](C(C)(C)C)[C@@H](C(=O)O)N(C(=O)C2CCCCC2)[C@H]1c1ccccc1 ?
Resp: +++ (≥350)

Req: Dear colleague, I am looking for the recorded Maximum % activity (with co-corrector) of the following compound: COc1ccc(C(C)(C)C)cc1CN[C@H]1[C@H](C(C)(C)C)[C@@H](C(=O)O)N(C(=O)c2cnn(-c3ccc(F)cc3F)c2C)[C@H]1c1ccccc1
Resp: +++ (≥350)

----------
Target: F508delCFTR (Homo sapiens, UniProt P13569, DEL508-508)
Construct: expressed in transfected cells; host or cells: CFBE41o- human lung-derived epithelial cells (CFBE4lo-F508delCFTR-HRP), doxycycline-inducible
Test: Cell Surface Expression-Horse Radish Peroxidase (CSE-HRP) Assay
Assay type: cell-based
Conditions: test compound without co-corrector; read-out: EC50 (without co-corrector)
Recorded Endpoint: EC50

Req: Given the entry CC(C)(C)[C@H]1[C@H](Nc2cc(C#N)cc(Cl)n2)[C@H](c2ccccc2)N(C(=O)C2CCCCC2)[C@@H]1C(=O)O [III-146] , report its measured EC50.
Resp: > 10 µM

Req: Look at this molecule and give its reported EC50. COc1ccc(C(C)(C)C)cc1CN[C@H]1[C@H](C(C)(C)C)[C@@H](C(=O)O)N(C(=O)C2CC2c2cccs2)[C@H]1c1ccccc1 (stereo partly drawn) [III-193]
Resp: < 1 µM

Req: # lookup: EC50 of COCCn1ccnc1CN[C@@H]1[C@@H](C(C)(C)C)[C@H](C(=O)O)N(C(=O)C2CCCCC2)[C@@H]1c1ccccc1 (racemic) [III-24]
Resp: > 10 µM

----------
Target: F508delCFTR (Homo sapiens, UniProt P13569, DEL508-508)
Construct: expressed in transfected cells; host or cells: CFBE41o- human lung-derived epithelial cells (CFBE4lo-F508delCFTR-HRP), doxycycline-inducible
Assay: Cell Surface Expression-Horse Radish Peroxidase (CSE-HRP) Assay
Format: cell-based
Conditions: with co-corrector (2 μM of 3-[(2R,4R)-4-({[1-(2,2-difluoro-1,3-benzodioxol-5-yl)cyclopropyl]carbonyl}amino)-7-methoxy-3,4-dihydro-2H-chromen-2-yl]benzoic acid); read-out: EC50 (with co-corrector)
Recorded Endpoint: EC50

Below are worked cases with known answers.
# Compound, EC50
measured = [
    ("CC(C)(C)[C@@H]1[C@@H](NCc2ccccc2OC(F)F)[C@@H](c2ccccc2)N(C(=O)C2CCCCC2)[C@H]1C(=O)O (racemic)", "1000 to 10000 nM"),
    ("COc1ncc(C(F)(F)F)cc1CN[C@H]1[C@H](C(C)(C)C)[C@@H](C(=O)O)N(C(=O)[C@@H]2CCCO2)[C@H]1c1cccnc1C1CC1", "1000 to 10000 nM"),
    ("COc1ccc(C(F)(F)F)cc1CN[C@H]1[C@H](C(C)(C)C)[C@@H](C(=O)O)N(C(=O)C2CCC(C(F)(F)F)C2)[C@H]1c1ccccc1 (some centres unmarked)", "1000 to 10000 nM"),
    ("COc1ccc(C2(C)CCC2)cc1CN[C@H]1[C@H](C(C)(C)C)[C@@H](C(=O)O)N(C(=O)[C@@H]2CCCCO2)[C@H]1c1ccccc1C", "< 1000 nM"),
    ("COc1ccc(C(F)(F)F)cc1CN[C@H]1[C@H](C(C)(C)C)[C@@H](C(=O)O)N(C(=O)OC(C)C)[C@H]1c1ccccc1C", "< 1000 nM"),
    ("COc1ccc(CC2CCCCC2)cc1CN[C@H]1[C@H](C(C)(C)OC)[C@@H](C(=O)O)N(C(=O)C2CCCCC2)[C@H]1c1ccccc1", "< 1000 nM"),
]

Req: Which EC50 value belongs to COc1ccc(C(C)(C)C)cc1CN[C@H]1[C@H](C(C)(C)C)[C@@H](C(=O)O)N(C(=O)C2CCc3cc(Cl)ccc32)[C@H]1c1ccccc1 (some centres unmarked) ?
Resp: < 1000 nM

Req: Recorded EC50 for COc1cc2ccccc2cc1CN[C@@H]1[C@H](C(C)(C)C)[C@@H](C(=O)O)N(C(=O)OC(C)C)[C@H]1c1ccccc1 , please?
Resp: 1000 to 10000 nM

Req: Consider the compound shown here: COc1ccc(C(C)(C)C)cc1CN[C@H]1[C@H](C(C)(C)C)[C@@H](C(=O)O)N(C(=O)C2CCOC(C(C)C)C2)[C@H]1c1ccccc1 (some centres unmarked) What is its recorded EC50?
Resp: < 1000 nM

Req: Which EC50 value belongs to CO[C@@H]1CCC[C@@H](C(=O)N2[C@H](c3ccccc3)[C@H](Nc3cc(C(F)(F)F)cc(C)n3)[C@@H](C(C)(C)C)[C@@H]2C(=O)O)C1 (racemic) ?
Resp: 1000 to 10000 nM

Req: Form field: reported EC50 of COc1cc2c(cc1CN[C@H]1[C@H](C(C)(C)C)[C@@H](C(=O)O)N(C(=O)OC(C)C)[C@H]1c1ccccc1)C(C)(C)CCC2(C)C
Resp: < 1000 nM

----------
Biological target: F508delCFTR (Homo sapiens, UniProt P13569, DEL508-508)
Construct: expressed in transfected cells; host or cells: CFBE41o- human lung-derived epithelial cells (CFBE4lo-F508delCFTR-HRP), doxycycline-inducible
Experiment: Cell Surface Expression-Horse Radish Peroxidase (CSE-HRP) Assay
Format: cell-based
Settings: test compound without co-corrector; read-out: EC50 (without co-corrector)
pEC50: −log10 of the molar value.
Recorded Endpoint: pEC50

Below, 4 compounds whose answers are already recorded.
# Compound, Assayed Target, pEC50
measured = [
    ("COc1ncc(CC(C)C)cc1CN[C@H]1[C@H](C(C)(C)C)[C@@H](C(=O)O)N(C(=O)C2CCCCC2)[C@H]1c1ccccc1", "F508delCFTR (Homo sapiens, UniProt P13569, DEL508-508)", "5.00 to 6.00"),
    ("COc1ccc(C(C)(C)C)cc1CN[C@H]1[C@H](C(C)(C)C)[C@@H](C(=O)O)N(C(=O)C2CCc3cc(F)ccc3O2)[C@H]1c1cccnc1N(C)C (stereo partly shown) [III-210]", "F508delCFTR (Homo sapiens, UniProt P13569, DEL508-508)", "5.00 to 6.00"),
    ("COc1ccc(C(C)(C)C)cc1CN[C@H]1[C@H](C(C)(C)C)[C@@H](C(=O)O)N(C(=O)[C@@H]2CCC[C@@](C)(O)C2)[C@H]1c1ccccc1", "F508delCFTR (Homo sapiens, UniProt P13569, DEL508-508)", "5.00 to 6.00"),
    ("COc1ccc(C(C)(C)C)cc1CN[C@H]1[C@H](C23CC(C2)C3)[C@@H](C(=O)O)N(C(=O)OC(C)C)[C@H]1c1ccccc1", "F508delCFTR (Homo sapiens, UniProt P13569, DEL508-508)", "5.00 to 6.00"),
]

Req: Returns the measured pEC50 for the input compound. Input: COc1ccc(C(C)(C)C)cc1CN[C@H]1[C@H](C(C)(C)C)[C@@H](C(=O)O)N(C(=O)C2CCCC2(C)C)[C@H]1c1ccccc1 (stereo partly shown)
Resp: > 6.00

Req: Record request: pEC50 value, item COc1ccc(C(F)(F)F)cc1CN[C@H]1[C@H](C(C)(C)C)[C@@H](C(=O)O)N(C(=O)[C@H]2OCC[C@H]2C(C)C)[C@H]1c1ccccc1 (relative stereo)
Resp: 5.00 to 6.00

Req: Consider the compound shown here: COc1ccc(C2(C(F)(F)F)CC2)cc1CN[C@H]1[C@H](C(C)(C)C)[C@@H](C(=O)O)N(C(=O)C2CCCCC2)[C@H]1c1ccccc1F What is its recorded pEC50?
Resp: 5.00 to 6.00
